Each entry below carries its recorded log10(GI50).
- Tested on: Ba/F3 cells expressing EGFR mutations
- MEASUREMENT NOTES: Cell proliferation assay, Ba/F3 cells expressing EGFR mutations (CellTiter-Glo, 72 hours)
- Assay type: cell-based
- CONDITION PARAMETERS: BaF3 cells, EGFR L858R-T790M, CellTiter-Glo, read-out: L858R-T790M/BaF3 GI50
The base-10 logarithm of GI50, taken with GI50 in nM, is what appears here.

Observe how each entry below is paired with its result.
{"COMPOUND": "CN1CC2(CCN(c3ccc4nc5n(c4c3)C34CCC(CN(CCOc6c(cnn6C)-c6cc(cn(C)c6=O)C(=O)N5)C3)C4)C2)C1 (single isomer, unassigned) [Example A73B]", "log10(GI50)": 0.90}
{"COMPOUND": "CN(C)C1CN(c2ccc3nc4n(c3c2)C23CCC(CN(CCOc5c(cnn5C)-c5cc(cn(C)c5=O)C(=O)N4)C2)C3)CC1F (single isomer, unassigned) [Example A84C]", "log10(GI50)": 1.08}
{"COMPOUND": "Cn1ncc2c1OCCN1CC3CCC(C3)(C1)n1c(nc3ccc(N4CCC(N5CC(F)C5)CC4)cc31)NC(=O)c1cc-2c(=O)n(C)c1 (single isomer, unassigned) [Example A87A]", "log10(GI50)": 2.49}

Switching to the query record.
The compound CN(C)[C@H]1CCN(c2ccc3nc4n(c3c2)C23CCC(CN(CCOc5c(cnn5C)-c5cc(cn(C)c5=O)C(=O)N4)C2)C3)C1 (single isomer, unassigned) [Example A66A] showed log10(GI50) equal to 3.33

---

- ASSAYED SYSTEM: EGFR L858R/T790M (Homo sapiens, UniProt P00533, L858R/T790M)
- Construct: purchased Carna Bio
- Sequence (P00533 25-1210 T790M/L858R): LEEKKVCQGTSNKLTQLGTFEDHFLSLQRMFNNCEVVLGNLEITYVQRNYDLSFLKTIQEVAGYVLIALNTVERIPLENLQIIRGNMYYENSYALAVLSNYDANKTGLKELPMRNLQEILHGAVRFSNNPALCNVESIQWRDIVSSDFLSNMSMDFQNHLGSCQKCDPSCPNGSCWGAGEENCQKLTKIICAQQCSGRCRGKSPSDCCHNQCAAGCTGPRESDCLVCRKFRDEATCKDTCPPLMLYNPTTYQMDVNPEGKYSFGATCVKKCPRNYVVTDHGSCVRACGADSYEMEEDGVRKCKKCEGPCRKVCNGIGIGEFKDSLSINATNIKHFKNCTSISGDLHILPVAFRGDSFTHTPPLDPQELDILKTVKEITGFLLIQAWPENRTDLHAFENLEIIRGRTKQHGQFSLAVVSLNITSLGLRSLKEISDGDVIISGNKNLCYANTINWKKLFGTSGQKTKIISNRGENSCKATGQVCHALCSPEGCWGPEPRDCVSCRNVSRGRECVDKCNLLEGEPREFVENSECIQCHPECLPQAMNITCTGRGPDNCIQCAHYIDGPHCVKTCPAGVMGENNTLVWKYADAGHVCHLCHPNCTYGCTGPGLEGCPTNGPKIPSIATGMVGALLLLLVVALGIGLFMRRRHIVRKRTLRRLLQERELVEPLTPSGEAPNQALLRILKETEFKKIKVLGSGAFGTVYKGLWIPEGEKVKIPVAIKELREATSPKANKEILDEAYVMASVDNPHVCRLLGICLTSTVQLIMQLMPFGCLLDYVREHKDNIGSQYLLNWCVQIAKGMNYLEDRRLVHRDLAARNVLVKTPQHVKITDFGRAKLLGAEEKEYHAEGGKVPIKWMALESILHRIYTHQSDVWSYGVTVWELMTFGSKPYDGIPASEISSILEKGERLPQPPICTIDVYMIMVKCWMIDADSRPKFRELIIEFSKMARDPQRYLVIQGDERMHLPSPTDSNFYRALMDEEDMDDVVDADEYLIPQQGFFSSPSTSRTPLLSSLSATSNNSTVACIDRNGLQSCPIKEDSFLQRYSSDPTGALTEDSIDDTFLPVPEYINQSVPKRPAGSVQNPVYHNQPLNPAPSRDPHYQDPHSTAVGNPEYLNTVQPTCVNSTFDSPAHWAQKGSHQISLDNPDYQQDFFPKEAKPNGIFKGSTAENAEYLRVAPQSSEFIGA
- MEASUREMENT NOTES: Inhibition of EGFR L858R/T790M biochemical enzymatic activity (HTRF)
- CONDITION PARAMETERS: EGFR L858R-T790M, 1 mM ATP, 1 h, room temperature, read-out: IC50 (nM) @L858R-T790M
MEASURED ATTRIBUTE: IC50

{"MOLECULE": "CN1CC2(C1)CN(c1ccc3nc4n(c3c1)C13CCC(CN(CCOc5c(cnn5C)-c5cc(cn(C)c5=O)C(=O)N4)C1)C3)C2 (single isomer, unassigned) [Example A92A]", "ASSAYED SYSTEM": "EGFR L858R/T790M (Homo sapiens, UniProt P00533, L858R/T790M)", "RESULT": "> 5000 nM"}

The molecule Cn1ncc2c1OCCN1CC3CCC(C3)(C1)n1c(nc3ccc(N4CCC(N5CCOCC5)C4)cc31)NC(=O)c1cc-2c(=O)n(C)c1 (single isomer, unassigned) [Example A104A] showed IC50 equal to > 5000 nM

The molecule CN1CCC2(CC1)CN(c1ccc3nc4n(c3c1)C13CCC(CN(CCOc5c(cnn5C)-c5cc(cn(C)c5=O)C(=O)N4)C1)C3)C2 (single isomer, unassigned) [Example A77A] showed IC50 equal to > 5000 nM

---

Each entry below carries its recorded pIC50.
- ASSAYED SYSTEM: EGFR L858R/T790M (Homo sapiens, UniProt P00533, L858R/T790M)
- Construct: purchased Carna Bio
- MEASUREMENT NOTES: Inhibition of EGFR L858R/T790M biochemical enzymatic activity (HTRF)
- CONDITION PARAMETERS: EGFR L858R/T790M, 1 mM ATP, 1 h at room temperature, read-out: IC50 @L858R-T790M
pIC50: −log10 of the molar value.

Observe how each entry below is paired with its result.
{"COMPOUND": "Cc1cc2cc(n1)-c1cnn(C)c1OCCN1CC3CCC(C3)(C1)n1c(nc3ccc(N4CC5CN(C)CC5C4)cc31)NC2=O (single isomer, unassigned) [Example B43A]", "ASSAYED SYSTEM": "EGFR L858R/T790M (Homo sapiens, UniProt P00533, L858R/T790M)", "pIC50": "< 5.30"}
{"COMPOUND": "Cc1cc2cc(n1)-c1cnn(C)c1OCCCCCn1c(nc3ccc4c(c31)CN(C1COC1)CC4)NC2=O", "ASSAYED SYSTEM": "EGFR L858R/T790M (Homo sapiens, UniProt P00533, L858R/T790M)", "pIC50": "< 5.30"}

Switching to the query record.
Entry Cc1cc2cc(n1)-c1cnn(C)c1OCCN1CC3CCC(C3)(C1)n1c(nc3ccc(N4CCC(N5CCOCC5)C4)cc31)NC2=O (single isomer, unassigned) [Example B44A] , tested on EGFR L858R/T790M (Homo sapiens, UniProt P00533, L858R/T790M), has a reported pIC50 of < 5.30
